Readings of solubility at 24 h for the listed molecules
- protocol_details: Solubility measurement (DMSO solution precipitation method)
- Assay type: physicochemical
- reported_conditions: aqueous buffer, kinetic from dmso stock; McIlvaine buffer pH 6.8, 24 h; read-out: Solubility [μg/ml] pH 6.8
// units = µg/mL; emit number, no label

C[C@H](Oc1cc(Oc2ccon2)nc(-c2noc3c2CCC[C@@]32CCCc3sc(N)c(C#N)c32)n1)[C@@H]1CCCN1C	42

Ask | Requested field: solubility at 24 h. Item: "C[C@H](Oc1cc(Sc2ncccn2)nc(-c2onc3c2CCC[C@@]32CCCc3sc(N)c(C#N)c32)n1)[C@@H]1CCCN1C"
Reply | 70
